System: A498 cells
Assay: Cell viability (MTS) assay in A498 cells, renal adenocarcinoma study
Assay type: cell-based
Conditions: A498 renal carcinoma cells, OD490 cell viability
Source text: Cell culture: A498 and ACHN cells were purchased from Tongbai Bio (Shanghai, China).
assay.endpoint: IC50 (µM)
One number for each entry, in µM.

*Q* Report IC50 for N.N.O=C([O-])C1(C(=O)[O-])CCC1.[Pt+2] please.
*A* 18.4

====

For each entry below, report its pIC50 value.
Tested on: HEK293 cells
Experiment: Cell viability (MTS) assay in HEK293 cells, leukemia study
Details: Homo sapiens, HEK293
Answers are plain numbers, as −log10 of the molar value.

# compound, experimental.system, pIC50
records = [
    ("CN(Cc1cnc2nc(N)nc(N)c2n1)c1ccc(C(=O)N[C@@H](CCC(=O)O)C(=O)O)cc1 [MTX, Methotrexate]", "HEK293 cells", 4.75),
]

*Q* Given the entry COc1cc([C@@H]2c3cc4c(cc3[C@@H](O[C@@H]3O[C@@H]5CO[C@@H](C)O[C@H]5[C@H](O)[C@H]3O)[C@H]3COC(=O)[C@H]23)OCO4)cc(OC)c1O [etoposide] , report its measured pIC50.
*A* 3.44
